# test: Growth inhibition of human SNB19 cells after 48 hrs by sulforhodamine B assay
# Type: functional
# assay setup: SNB-19, 48 h
recorded endpoint: GI50

Observe how each entry below is paired with its result.
In [3]: df
Out[3]:
                            compound_smiles    result
0  COc1ccc(/C=C(\C#N)c2ccc3c(c2)OCO3)c2ccccc12   4.24 µM
1    COc1ccc(/C(C#N)=C/c2ccc3c(c2)OCCO3)cc1  > 100 µM
2     COc1ccc(/C=C/c2cc(OC)c(OC)c(OC)c2)cc1   4.85 µM
3  COc1ccc(/C(C#N)=C/c2ccc3c(c2)OCCO3)cc1OC   4.08 µM
4     COc1ccc(/C=C(\C#N)c2ccc3c(c2)OCO3)cc1   0.75 µM
5  COc1ccc(/C=C(\C#N)c2ccc3c(c2)OCO3)c(OC)c1   6.95 µM

Lookup result for N#C/C(=C\c1cc2ccccc2s1)c1ccc2c(c1)OCO2 ; measured GI50: 0.23 µM

Value of measured GI50 for the entry COc1cc(/C(C#N)=C/c2ccc3c(c2)OCCO3)cc(OC)c1OC : 0.19 µM

N#C/C(=C\c1cccc2ccccc12)c1ccc2c(c1)OCO2 yielded GI50 of 6.29 µM

----------
# test: Growth inhibition of human SF539 cells at 10 uM after 48 hrs by sulforhodamine B assay
# Type: functional
# assay setup: SF-539, 48 h, values are per cent of control
Strictly below 90% in growth, % of control at 10 µM: label 1. Otherwise: label 0.

In [3]: df
Out[3]:
                            compound_smiles      cat
0  N#C/C(=C\c1cc(Br)cc(Br)c1)c1ccc2c(c1)OCO2  label 0
1  COc1ccc(/C=C(\C#N)c2ccc3c(c2)OCO3)c2ccccc12  label 1
2  COc1cc(/C=C(\C#N)c2ccc3c(c2)OCO3)cc(OC)c1  label 0

Q: # strict comparison: is reported growth, % of control at 10 µM < 90%? input = COc1ccc(/C(C#N)=C/c2ccc3c(c2)OCCO3)cc1OC
Result: label 1

Q: Does the reported growth, % of control at 10 µM of COc1cc(/C(C#N)=C/c2ccc3c(c2)OCCO3)cc(OC)c1OC stay below 90%?
Result: label 1

Q: Is the reported growth, % of control at 10 µM for N#C/C(=C\c1ccsc1)c1ccc2c(c1)OCO2 strictly below 90%?
Result: label 0

Q: Item COc1ccc(/C(C#N)=C/c2ccc3c(c2)OCO3)cc1 : growth, % of control at 10 µM beneath 90%, strictly?
Result: label 1

Q: Here's an entry: N#C/C(=C\c1ccc2c(c1)OCO2)c1ccc2c(c1)OCO2 . Is its growth, % of control at 10 µM below 90%?
Result: label 1

----------
# test: Growth inhibition of human SF268 cells after 48 hrs by sulforhodamine B assay
# Format: functional
# assay setup: SF-268, 48 h
Below is a list of entries, each paired with its recorded log10 of GI50 value.
Each number you see is log10 of GI50, and the unit inside the log is µM.

                            compound_smiles  numeric_readout
0  COc1ccc(/C=C(\C#N)c2ccc3c(c2)OCO3)c2ccccc12             0.97
1  COc1ccc(/C=C(\C#N)c2ccc3c(c2)OCO3)c(OC)c1             0.97
2     COc1ccc(/C=C(\C#N)c2ccc3c(c2)OCO3)cc1            -0.14
3  COc1ccc(/C(C#N)=C/c2ccc3c(c2)OCCO3)cc1OC             0.73
4   N#C/C(=C\c1cccc2ccccc12)c1ccc2c(c1)OCO2             0.95

Measured log10 of GI50, COc1cc(/C(C#N)=C/c2ccc3c(c2)OCCO3)cc(OC)c1OC : -0.96

COc1ccc(/C=C/c2cc(OC)c(OC)c(OC)c2)cc1 has a reported log10 of GI50 of 0.88

Looking up N#C/C(=C\c1cc2ccccc2s1)c1ccc2c(c1)OCO2 , I see its log10 of GI50 listed as 0.21

Hello, the source for this data is ChEMBL document CHEMBL3792365, in case you need it.
